Tested on: HCT-15 colon
Assay: NCI tumour cell line growth inhibition, 48 h
EXPERIMENTAL_READOUT: TGI

Consider the reported TGI for these compounds:
COMPOUND | ASSAY_SYSTEM | TGI
CC(C)=CCC/C(C)=C/CC/C(C)=C/CC/C=C(\C)CC/C=C(\C)CCC1SC1(C)C (centres undefined) | HCT-15 colon | > 100 µM
COc1cc(-c2cc(/C=C/C(=O)c3ccc4c(c3)OCO4)[nH]n2)cc(OC)c1OC | HCT-15 colon | 7.19 µM

Here is the next item to consider.
Per the record, CCCCCCNC(=O)c1cc(C#Cc2cc(OC)ccc2OC)ccc1OC has TGI of > 100 µM

====

Test system: NCI-H23 lung
Assay: NCI tumour cell line growth inhibition, 48 h
Below, each of the compounds is paired with its reported TGI value.

COMPOUND | TGI
COc1cc2c(c(N)c1OC)C(=O)/C(=C/c1cc(C)c(O)c(C)c1)C2 | > 46.6 µM

Per the record, CCCCCCNC(=O)c1cc(C#Cc2cc(OC)ccc2OC)ccc1OC has TGI of > 100 µM

Per the record, COc1ccc(N2C(=O)C3c4[nH]c5ccccc5c4C4CCCCCCCC4C3C2=O)cc1 (stereo unspecified) has TGI of > 10 µM

Per the record, CCOCCc1c(O)nc(SC)[nH]c1=O has TGI of > 100 µM

Per the record, O=S(=O)(O)c1ccc(Cl)cc1.[Cd] has TGI of 82.3 µM

Per the record, CCOC(=O)C1(Cc2ccccc2)Cc2cc3c(cc2C1=O)CCC3 (stereo unspecified) has TGI of > 100 µM

====

System: HCT-15 colon
Assay: NCI tumour cell line growth inhibition, 48 h
So basically: TGI at 40 µM or higher? That is True. Lower than 40 µM? That is False.

Check out these entries, answers already filled in.
MOLECULE | ASSIGNED_CATEGORY
COc1c(C(=O)/C(=N/Nc2ccccc2)C(C)=O)c(O)c(OC)c2occc12 | True
COc1ccc(-c2nc(N(C)C)c3ccccc3n2)cc1 | False
O/N=C(\C=N\O)c1ccc2c(c1)Sc1ccccc1O2 | True
C=C1C(=O)OC2C[C@H](C)C3CC(=O)C(C)=C3CC12 (stereo partly specified) | False
O=C(Nc1ccc(Cl)c(Cl)c1)C(=O)C(C1OC(=O)c2ccccc21)[N+](=O)[O-] (stereo unspecified) | True

TGI >= 40 µM for Cn1c(=O)nc2n(CCO)ccnc-2c1=O ?
True

TGI >= 40 µM for CSc1c(CC(=O)O)n(Cc2ccccc2)c2ccccc12 ?
True

====

Test system: COLO 205 colon
Test: NCI tumour cell line growth inhibition, 48 h
EXPERIMENTAL_READOUT: TGI (µM)
Number in µM, nothing else.

Consider the reported TGI for these molecules:
MOLECULE | VAL
O=C(CCc1nnc(-c2c(Cl)cccc2Cl)o1)c1nc2ccccc2[nH]1 | 7.08
NCCCCC(N)C(=O)N1CCN(c2nc(N3CCCC3)c3nc(Cl)c(NCc4ccccc4)nc3n2)CC1 (centres undefined) | 33.1

Here is the next item to consider.
Per the record, COc1cc(-c2cc(/C=C/C(=O)c3ccc4c(c3)OCO4)[nH]n2)cc(OC)c1OC has TGI of 3.85
